Measured log2 fold change of degron read counts by item
- measured-on: T1, CRBN, Q96SW2
- T1 chain: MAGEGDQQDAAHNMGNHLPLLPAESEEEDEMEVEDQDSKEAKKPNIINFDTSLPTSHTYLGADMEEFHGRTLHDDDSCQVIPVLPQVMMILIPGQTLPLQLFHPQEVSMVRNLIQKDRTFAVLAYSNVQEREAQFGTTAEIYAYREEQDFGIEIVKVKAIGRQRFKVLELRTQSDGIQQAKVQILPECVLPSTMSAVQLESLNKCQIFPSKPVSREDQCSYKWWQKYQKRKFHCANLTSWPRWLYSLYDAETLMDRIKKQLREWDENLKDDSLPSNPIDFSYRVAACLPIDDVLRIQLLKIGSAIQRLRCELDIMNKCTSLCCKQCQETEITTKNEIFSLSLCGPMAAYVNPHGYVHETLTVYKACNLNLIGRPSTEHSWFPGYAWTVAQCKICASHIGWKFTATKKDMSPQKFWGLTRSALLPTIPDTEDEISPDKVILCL
- protocol-notes: log2 fold change of degron read counts, EGFP-low vs EGFP+ sorted cells (limma voom), compound-induced degradation; higher = more compound-induced degradation of the degron-EGFP fusion; degrons are variants of IKZF1/3 zinc finger 2; compound dose not given here;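 note: pooled lentiviral library of zinc finger degron-EGFP fusions in mCherry-positive Jurkat cells, FACS-sorted after compound exposure, with degron abundance counted by next-generation sequencing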
- condition-details: Jurkat; 18 h; compound: compound 33 (diphenyl IMiD analogue)
The full ranking holds about 8,300 sequences; the median of “log2 fold change of degron read counts, EGFP-low vs EGFP+ sorted cells (limma voom), compound-induced degradation” is about -1.1, and the highest 2% start at about 3.2. This is one part of a sample in which the highest values are shown more often than they occur.
I only need the number, thanks.

Some entries whose results are on file:
INSERT INTO results (residue_codes, value_type, quantitative_readout) VALUES
  ('FVCNQCGHVFTQKGNLLRHIKL [46F_47V_49N_50Q_52G_53H_54V_55F_67L_, Q9UKT9]', 'log2 fold change of degron read counts', -2.27),
  ('FACPVCGAPFTQKGNLLRHIKL [46F_47A_49P_50V_52G_53A_54P_55F_67L_, Q9UKT9]', 'log2 fold change of degron read counts', 1.07),
  ('LACPICGFQCTQKGNLLRHIKL [46L_47A_49P_50I_52G_53F_54Q_55C_67L_, Q9UKT9]', 'log2 fold change of degron read counts', 1.86),
  ('LHCPICGFQCTQKGNLLRHIKL [46L_47H_49P_50I_52G_53F_54Q_55C_67L_, Q9UKT9]', 'log2 fold change of degron read counts', 2.36),
  ('LSCPICGFQCTQKGNLLRHIKL [46L_47S_49P_50I_52G_53F_54Q_55C_67L_, Q9UKT9]', 'log2 fold change of degron read counts', 1.54),
  ('LVCEICGFGCTQKGNLLRHIKL [46L_47V_49E_50I_52G_53F_54G_55C_67L_, Q9UKT9]', 'log2 fold change of degron read counts', 0.702);

Please find the next sequence below.
query: # get_value(readout='log2 fold change of degron read counts', item= FICNVCGAPFTQKGNLLRHIKL [46F_47I_49N_50V_52G_53A_54P_55F_67L_, Q9UKT9] )
result: 1.6
